- target_or_test_system: His6-TEV-PPARγ-(234-505) (Homo sapiens)
- Construct: The His6-TEV-PPARγ-(234-505) protein for assay was expressed and purified; TEV cleavage site (N); made in house
- Sequence (P37231 234-505): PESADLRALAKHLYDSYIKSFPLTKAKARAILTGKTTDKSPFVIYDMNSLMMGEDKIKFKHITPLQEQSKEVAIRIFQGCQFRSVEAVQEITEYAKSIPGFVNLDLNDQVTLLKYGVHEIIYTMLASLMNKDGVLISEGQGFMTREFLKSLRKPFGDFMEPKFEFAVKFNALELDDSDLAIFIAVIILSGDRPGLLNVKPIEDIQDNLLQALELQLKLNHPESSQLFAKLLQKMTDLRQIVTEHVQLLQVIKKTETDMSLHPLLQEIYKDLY
- measurement_description: TR-FRET Assay to Measure Co-R Peptide Recruitment to PPARγ
- Assay type: biochemical
- run_conditions: Co-R peptide (SMRT-ID2) recruitment; top final concentration 20 μM; read-out: TR-FRET i-Ag; AC50
measure_name: AC50 (nM)
Answers are plain numbers, in nM.

Use the examples below as a reference point.
COc1cc(-c2cc(C(=O)N3CCC(C(=O)NCC4CCn5c(C)nnc5C4)CC34CC4)[nH]n2)c(F)cn1 (mixture of isomers)	371
COc1cc(-c2cc(C(=O)N3CCC(C(=O)NCC4CCn5cncc5C4)CC34CC4)[nH]n2)c(F)cn1 (mixture of isomers)	78.3
COc1cc(-c2cc(C(=O)N3CC[C@H](C(=O)NC4CCNC4)CC34CC4)n[nH]2)c(F)cn1 (stereo partly shown)	62.6

Attention now shifts to the item below.
Query block: Fill in: AC50 of COc1cc(-c2cc(C(=O)N3CC[C@H](C(=O)NCC45COC(C)(C4)C5)CC34CC4)n[nH]2)c(F)cn1 is ___
Result block: 20
